These measurements were taken from ChEMBL document CHEMBL5537118.

# Tested on: RAW264.7
# Procedure summary: Antiinflammatory activity in LPS-induced mouse RAW264.7 cells assessed as inhibition of NO production at 2 to 10 uM pretreated for 1 hr followed by LPS addition and measured after 24 hrs by griess reagent based assay
# Type: functional, cell-based
# Condition details: dose 2-10 µM, time 25.0 hrs
Calls of active or inactive are those of the source. The rule behind the calls is not given here.
Just give me one of these, please: class 1 = active, class 0 = inactive

Ask: Kindly provide the recorded test outcome for the following compound: `COc1ccc2c(c1)CCN2CCCNC(=O)/C=C/c1ccc(O)c(Cl)c1`
Reply: class 1

Ask: Kindly provide the recorded test outcome for the following compound: `O=C(/C=C/c1ccc(O)cc1)NCCCN1CCc2ccccc21`
Reply: class 1

Ask: Kindly provide the recorded test outcome for the following compound: `COc1ccc2c(c1)CCN2CCCNC(=O)/C=C/c1ccc(O)c(O)c1`
Reply: class 1

Ask: Kindly provide the recorded test outcome for the following compound: `O=C(/C=C/c1ccc(O)c(Cl)c1)NCCCN1CCc2cc(Cl)ccc21`
Reply: class 1

Continuing:
Ask: Kindly provide the recorded test outcome for the following compound: `O=C(/C=C/c1ccc(O)c(O)c1)NCCCN1CCc2cc(Cl)ccc21`
Reply: class 1

Ask: Kindly provide the recorded test outcome for the following compound: `COc1ccc2c(c1)CCN2CCCNC(=O)/C=C/c1cccc(O)c1`
Reply: class 0

Ask: Kindly provide the recorded test outcome for the following compound: `O=C(/C=C/c1ccc(O)c(O)c1)NCCCN1CCc2ccccc21`
Reply: class 1

Ask: Kindly provide the recorded test outcome for the following compound: `COc1ccc2c(c1)CCN2CCCNC(=O)/C=C/c1cc(OC)c(OC)c(OC)c1`
Reply: class 1

Ask: Kindly provide the recorded test outcome for the following compound: `O=C(/C=C/c1ccc(O)c(Cl)c1)NCCCN1CCc2ccccc21`
Reply: class 1

Ask: Kindly provide the recorded test outcome for the following compound: `COc1cc(/C=C/C(=O)NCCCN2CCc3cc(Cl)ccc32)cc(OC)c1OC`
Reply: class 1

Ask: Kindly provide the recorded test outcome for the following compound: `COc1ccc2c(c1)CCN2CCCNC(=O)/C=C/c1ccc(O)cc1`
Reply: class 1

Ask: Kindly provide the recorded test outcome for the following compound: `COc1cc(/C=C/C(=O)NCCCN2CCc3ccccc32)cc(OC)c1OC`
Reply: class 1
